B1: Pistol ribozyme (parent)
chain: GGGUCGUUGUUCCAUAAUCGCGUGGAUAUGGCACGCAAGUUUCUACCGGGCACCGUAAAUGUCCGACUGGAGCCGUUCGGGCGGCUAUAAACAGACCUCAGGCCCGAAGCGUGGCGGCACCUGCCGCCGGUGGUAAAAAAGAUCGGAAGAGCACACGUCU

# Variants of: B1
# test: aptazyme ON/OFF ratio, guanine; higher = stronger switching; co-transcriptional cleavage with and without guanine
measuredMetric: aptazyme ON/OFF ratio

>  <sequenceVariant>
U8C U10C U11C C12G

>  <observedMeasurement>
1.18

$$$$
>  <sequenceVariant>
U7G U8A U11A C13U

>  <observedMeasurement>
1.4

$$$$
>  <sequenceVariant>
U7A U8A G9A U10C U11A C13A

>  <observedMeasurement>
1.11

$$$$

Continue with the variant presented below.
Given the entry U7G U8A G9A U10C U11G C13A , report its measured aptazyme ON/OFF ratio. 1.14
